# EXPERIMENTAL_PARAMETERS: in ethanol, 313.15 K
METRIC: solubility (mole fraction)

Short answer for Nc1ccc(Oc2ccc(N)cc2)cc1 : solubility (mole fraction) was 0.00176

----------
# EXPERIMENTAL_PARAMETERS: in DMF, 293.15 K
METRIC: solubility (mole fraction)
Respond using a number only.

Short answer for Nc1ccc(Oc2ccc(N)cc2)cc1 : solubility (mole fraction) was 0.11

----------
# EXPERIMENTAL_PARAMETERS: in 2-ethoxyethanol, 313.15 K
METRIC: solubility (mole fraction)
Respond using a number only.

Short answer for Nc1ccc(Oc2ccc(N)cc2)cc1 : solubility (mole fraction) was 0.0436

----------
# EXPERIMENTAL_PARAMETERS: in methanol, 308.15 K
METRIC: solubility (mole fraction)
Respond using a number only.

Short answer for Nc1ccc(Oc2ccc(N)cc2)cc1 : solubility (mole fraction) was 0.00246

----------
# EXPERIMENTAL_PARAMETERS: in DMF, 303.15 K
METRIC: solubility (mole fraction)
Respond using a number only.

Short answer for Nc1ccc(Oc2ccc(N)cc2)cc1 : solubility (mole fraction) was 0.12

----------
# EXPERIMENTAL_PARAMETERS: in methanol, 318.15 K
METRIC: solubility (mole fraction)
Respond using a number only.

Short answer for Nc1ccc(Oc2ccc(N)cc2)cc1 : solubility (mole fraction) was 0.00349

----------
# EXPERIMENTAL_PARAMETERS: in DMAc, 298.15 K
METRIC: solubility (mole fraction)

Short answer for Nc1ccc(Oc2ccc(N)cc2)cc1 : solubility (mole fraction) was 0.143

----------
# EXPERIMENTAL_PARAMETERS: in 2-ethoxyethanol, 288.15 K
METRIC: solubility (mole fraction)
Respond using a number only.

Short answer for Nc1ccc(Oc2ccc(N)cc2)cc1 : solubility (mole fraction) was 0.0288

----------
# EXPERIMENTAL_PARAMETERS: in methanol, 288.15 K
METRIC: solubility (mole fraction)
Respond using a number only.

Short answer for Nc1ccc(Oc2ccc(N)cc2)cc1 : solubility (mole fraction) was 0.00132

----------
# EXPERIMENTAL_PARAMETERS: in ethanol, 303.15 K
METRIC: solubility (mole fraction)
Respond using a number only.

Short answer for Nc1ccc(Oc2ccc(N)cc2)cc1 : solubility (mole fraction) was 0.00113

----------
# EXPERIMENTAL_PARAMETERS: in methanol, 313.15 K
METRIC: solubility (mole fraction)

Short answer for Nc1ccc(Oc2ccc(N)cc2)cc1 : solubility (mole fraction) was 0.00293

----------
# EXPERIMENTAL_PARAMETERS: in DMAc, 288.15 K
METRIC: solubility (mole fraction)
Respond using a number only.

Short answer for Nc1ccc(Oc2ccc(N)cc2)cc1 : solubility (mole fraction) was 0.136

----------
# EXPERIMENTAL_PARAMETERS: in DMSO, 303.15 K
METRIC: solubility (mole fraction)

Short answer for Nc1ccc(Oc2ccc(N)cc2)cc1 : solubility (mole fraction) was 0.159

----------
# EXPERIMENTAL_PARAMETERS: in DMAc, 293.15 K
METRIC: solubility (mole fraction)
Respond using a number only.

Short answer for Nc1ccc(Oc2ccc(N)cc2)cc1 : solubility (mole fraction) was 0.139
